Cited source: patent US20100260765A1

- target or test system: human KDR (human, UniProt P35968 20-1356)
- Sequence (P35968 20-1356): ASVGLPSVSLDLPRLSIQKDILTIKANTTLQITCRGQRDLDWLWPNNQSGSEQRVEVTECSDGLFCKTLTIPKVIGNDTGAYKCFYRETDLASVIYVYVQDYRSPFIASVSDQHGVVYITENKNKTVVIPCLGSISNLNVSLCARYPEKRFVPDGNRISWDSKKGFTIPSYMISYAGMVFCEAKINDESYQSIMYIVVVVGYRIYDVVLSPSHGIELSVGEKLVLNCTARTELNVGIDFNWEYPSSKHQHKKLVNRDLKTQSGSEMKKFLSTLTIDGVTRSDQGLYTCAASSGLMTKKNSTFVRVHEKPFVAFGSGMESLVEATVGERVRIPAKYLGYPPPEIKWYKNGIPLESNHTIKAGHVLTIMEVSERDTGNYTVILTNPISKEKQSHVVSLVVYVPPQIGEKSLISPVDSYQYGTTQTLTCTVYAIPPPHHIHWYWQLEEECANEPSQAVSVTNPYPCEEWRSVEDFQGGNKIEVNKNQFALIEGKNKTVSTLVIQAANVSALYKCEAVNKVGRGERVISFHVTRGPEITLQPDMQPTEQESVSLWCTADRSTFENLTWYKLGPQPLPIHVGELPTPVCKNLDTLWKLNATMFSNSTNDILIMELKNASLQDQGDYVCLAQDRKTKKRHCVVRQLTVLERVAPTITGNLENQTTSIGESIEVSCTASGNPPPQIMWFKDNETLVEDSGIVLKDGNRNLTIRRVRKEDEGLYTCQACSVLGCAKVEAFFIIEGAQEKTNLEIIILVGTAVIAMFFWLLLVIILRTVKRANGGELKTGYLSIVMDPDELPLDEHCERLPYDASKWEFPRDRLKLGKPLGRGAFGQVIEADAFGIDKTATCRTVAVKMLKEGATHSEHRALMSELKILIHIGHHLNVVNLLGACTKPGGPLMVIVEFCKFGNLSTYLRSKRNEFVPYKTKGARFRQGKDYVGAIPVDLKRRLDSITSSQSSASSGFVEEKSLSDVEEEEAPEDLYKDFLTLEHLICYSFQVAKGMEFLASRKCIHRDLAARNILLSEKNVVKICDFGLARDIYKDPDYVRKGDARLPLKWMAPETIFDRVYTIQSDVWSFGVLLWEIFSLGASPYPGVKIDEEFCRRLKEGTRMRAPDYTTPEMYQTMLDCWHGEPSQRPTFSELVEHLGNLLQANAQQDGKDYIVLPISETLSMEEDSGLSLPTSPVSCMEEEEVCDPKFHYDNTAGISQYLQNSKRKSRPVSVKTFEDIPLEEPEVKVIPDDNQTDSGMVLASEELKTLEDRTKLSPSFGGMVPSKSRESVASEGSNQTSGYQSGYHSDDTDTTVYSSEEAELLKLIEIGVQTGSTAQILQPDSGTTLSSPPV
- assay notes: cell-based or functional assay
metric name: 6-keto Prostaglandin F1α release, EC50 (nM), N = 2

INSERT INTO results (binder, observed_result) VALUES
  ('33E1 (antibody, V domains shown, Fully human monoclonal antibody from a XenoMouse hybridoma (IgG2 or IgG4 strain), purified) VH: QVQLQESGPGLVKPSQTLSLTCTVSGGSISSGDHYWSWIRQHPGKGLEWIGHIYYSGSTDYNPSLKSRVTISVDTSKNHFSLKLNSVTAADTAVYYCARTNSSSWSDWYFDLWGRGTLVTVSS VL: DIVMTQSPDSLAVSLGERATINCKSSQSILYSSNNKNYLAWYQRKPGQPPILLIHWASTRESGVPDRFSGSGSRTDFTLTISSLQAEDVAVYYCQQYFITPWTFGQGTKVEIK', 5.4),
  ('33B1 (antibody, V domains shown, Fully human monoclonal antibody from a XenoMouse hybridoma (IgG2 or IgG4 strain), purified) VH: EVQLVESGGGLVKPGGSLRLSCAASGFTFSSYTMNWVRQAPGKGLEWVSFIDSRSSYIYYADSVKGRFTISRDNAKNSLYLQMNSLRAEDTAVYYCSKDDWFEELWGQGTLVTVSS VL: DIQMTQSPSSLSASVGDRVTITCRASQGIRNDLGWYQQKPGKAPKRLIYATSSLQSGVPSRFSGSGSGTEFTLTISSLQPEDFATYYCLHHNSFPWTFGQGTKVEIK', 7670);
